- Tested on: Mycobacterium tuberculosis
- PROTOCOL: Inhibition of Mycobacterium tuberculosis N-terminal His-tagged BioA assessed as temperature of denaturation shift by […]
The label 1 (yes) is reserved for ΔTm strictly under 4 °C; 0 (no) covers values equal to or above it.

Enquiry: Would you kindly verify if ΔTm of O=C(c1ccccc1)C1CCNCC1 is strictly less than 4 °C?
Return: 1 (yes)

Enquiry: Record: CNCc1ccc(Cn2cccn2)cc1
Return: 0 (no)

Enquiry: Entry to check: NCc1ccc(Cn2cc(Cl)cn2)cc1
Return: 1 (yes)

Enquiry: Try the compound NCc1nc2ccccc2s1
Return: 1 (yes)

Enquiry: Repeat for the following compound: CC(=O)Nc1ccc2c(c1)C=CC2=O
Return: 1 (yes)

Enquiry: Please answer likewise for NC(=O)c1ccc(-c2ccccn2)s1
Return: 0 (no)

---

For each entry below, report its pKd value.
- PROTOCOL: Inhibition of Mycobacterium tuberculosis N-terminal His-tagged BioA assessed as dissociation constant by isothermal titration calorimetry
Answer as the number alone; pKd is minus log10 of concentration in mol/L.

Enquiry: So what does the record say about pKd for NCc1ccc(Cn2cc(Cl)cn2)cc1 ?
Return: 5.17

Enquiry: Same thing, different compound: NCc1nc2ccccc2s1
Return: 4.52

Enquiry: Try NC(=O)c1ccc(-n2ccnc2)cc1 next.
Return: 4.82

Enquiry: Follow-up item: O=C(c1ccccc1)C1CCNCC1
Return: 4.38

Enquiry: Lookup NC(=O)c1ccc(-c2ccccn2)s1
Return: 5.16

Enquiry: Same read-out for CNCc1ccc(Cn2cccn2)cc1 ?
Return: 4.93

Enquiry: Same question, CC(=O)Nc1ccc2c(c1)C=CC2=O this time
Return: 4.66
